Reported IC50 by item:
target: human rec ACSS2 (Homo sapiens, UniProt Q9NR19); construct: myc (C); test: Biochemical activity ACSS2 assay (AMP-Glo); conditions: human recombinant ACSS2, AMP-Glo, 180 min at 37° C.
Sequence (Q9NR19 whole entry): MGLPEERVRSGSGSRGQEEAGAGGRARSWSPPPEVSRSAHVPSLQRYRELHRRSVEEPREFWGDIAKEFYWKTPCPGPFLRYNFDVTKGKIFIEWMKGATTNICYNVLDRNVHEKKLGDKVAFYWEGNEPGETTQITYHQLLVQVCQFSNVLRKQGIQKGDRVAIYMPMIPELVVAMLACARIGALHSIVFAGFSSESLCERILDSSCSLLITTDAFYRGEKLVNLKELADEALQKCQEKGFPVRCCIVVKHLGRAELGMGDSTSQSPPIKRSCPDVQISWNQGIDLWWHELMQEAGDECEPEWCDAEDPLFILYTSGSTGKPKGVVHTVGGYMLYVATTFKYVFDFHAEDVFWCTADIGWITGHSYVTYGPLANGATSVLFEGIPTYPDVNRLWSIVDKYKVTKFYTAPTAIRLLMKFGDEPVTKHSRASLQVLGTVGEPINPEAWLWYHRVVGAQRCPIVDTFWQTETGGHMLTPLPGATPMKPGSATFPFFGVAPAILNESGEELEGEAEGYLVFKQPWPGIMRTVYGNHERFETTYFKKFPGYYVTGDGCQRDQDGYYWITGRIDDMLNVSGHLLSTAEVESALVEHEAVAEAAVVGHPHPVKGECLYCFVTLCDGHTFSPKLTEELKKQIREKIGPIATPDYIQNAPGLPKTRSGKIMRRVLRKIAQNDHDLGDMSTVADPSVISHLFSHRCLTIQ

Some compounds with known IC50 results, for comparison:
Challenge: Name the reported IC50 value associated with the compound CCn1cnc(NC(=O)c2cc3c(nc2C)nc(C(O)(c2ccccc2F)c2ccc(OC(F)F)cc2F)n3CC)n1 (single isomer, unassigned) [Compound 96]
Response given: 1 to 10 nM

Challenge: Name the reported IC50 value associated with the compound CCn1cnc(NC(=O)c2cc3c(nc2OC)nc(C(O)(c2ccccc2)c2ncccn2)n3CC)n1 (racemic) [Compound 49]
Response given: 10 to 100 nM

Challenge: Name the reported IC50 value associated with the compound CCc1c(C(O)(c2ccccc2)c2ccccc2)nn2cc(Cl)c(C(=O)Nc3cnn(CC)c3)cc12 [Compound 6]
Response given: 10 to 100 nM

Challenge: Name the reported IC50 value associated with the compound CCn1cnc(NC(=O)c2cc3c(nc2OC)nc(C(O)(c2cccs2)c2cccs2)n3CC)n1 [Compound 55]
Response given: 1 to 10 nM

Challenge: Name the reported IC50 value associated with the compound CCc1c(C(O)(c2ccccc2F)c2ccccc2F)nc2cc(Cl)c(C(=O)Nc3cnn(CC)c3)cn12 [Compound 29]
Response given: 10 to 100 nM

More entries:
Challenge: Name the reported IC50 value associated with the compound CCn1cnc(NC(=O)c2cc3c(nc2Cl)nc(C(O)(c2ccccc2F)c2ccccc2F)n3CC)n1 [Compound 100]
Response given: 0.01 to 1 nM

Challenge: Name the reported IC50 value associated with the compound CCn1cnc(NC(=O)c2cc3c(nc2OC)nc(C(O)(c2ccc(OC(F)F)cc2)c2ccccc2F)n3CC)n1 (racemic) [Compound 87]
Response given: 1 to 10 nM

---

target: ACSS2 (Homo sapiens); construct: endogenous fatty acid synthesis activity in the human HCT-15 cancer cell line; endogenous in cells; host or cells: HCT-15; test: Cellular assay of 14C acetate incorporation into histones (IC50 ACSS2 cellular histone); format: cell-based; settings: HCT-15 cells
Reported IC50 by item:

Challenge: Name the reported IC50 value associated with the compound CCc1c(C(O)(c2ccccc2F)c2ccccc2F)nn2cc(OC)c(C(=O)Nc3cnn(CC)c3)cc12
Response given: 1 to 10 nM

Challenge: Name the reported IC50 value associated with the compound CCn1cc(NC(=O)c2cc3c(nc2C)nc(C(O)(c2ccccc2F)c2ccccc2F)n3CC)cn1
Response given: 0.01 to 1 nM

Challenge: Name the reported IC50 value associated with the compound CCn1c(C(O)(c2ccccc2)c2ccccc2)nc2nc(Cl)c(C(=O)Nc3cnn(CCO)c3)cc21
Response given: 10 to 100 nM

Challenge: Name the reported IC50 value associated with the compound CCn1cnc(NC(=O)c2cc3c(nc2OC)nc(C(O)(c2ccccc2)c2cnn(C)c2)n3CC)n1 (racemic)
Response given: 100 to 10000 nM

---

target: ACSS2 (Homo sapiens, UniProt Q9NR19); construct: endogenous fatty acid synthesis activity in the human HCT-15 cancer cell line; endogenous in cells; host or cells: HCT-15; assay: Cellular assay of 14C acetate incorporation into histones (IC50 ACSS2 cellular histone); assay type: cell-based; conditions: HCT-15 cells
pIC50: −log10 of the molar value.
Reported pIC50 by item:

Challenge: Name the reported pIC50 value associated with the compound CCn1cc(NC(=O)c2cnc3nc(C(O)(c4ccccc4)c4ccccc4)n(CC)c3c2)cn1
Response given: 7.00 to 8.00

Challenge: Name the reported pIC50 value associated with the compound CCn1cnc(NC(=O)c2cc3c(nc2OC)nc(C(O)(c2ccccc2F)c2ccccc2F)n3CC)n1
Response given: 9.00 to 11.00

Challenge: Name the reported pIC50 value associated with the compound CCn1cc(NC(=O)c2cc3c(nc2Cl)nc(C(O)(c2ccc(OC(F)F)cc2)c2ccccc2F)n3CC)cn1 (racemic)
Response given: 7.00 to 8.00
